Attribution: PubChem BioAssay (Tox21)

experimental details: Caspase-3/7 induction in CHO-K1 cells by small molecules, qHTS assay (AID 1346980); note: % is set by controls: 0 for no effect and ±100 for the full control effect; nearly all actives have a fitted effect of over 15% in size
condition info: CHO-K1 caspase-3/7 induction, Caspase-Glo luminescence, 17 h; series mostly up to 92.4 µM
The source made the active and inactive calls. Calls come from the whole dose curve; as a rule, active = well fitted activation curve with a large enough effect in the repeat runs; inconclusive = weak or mixed curves; inactive = flat fitted curve, though single readings scatter.

molecule | caspase-3/7 activation
Cc1ccc2c(c1)c1c3n2CCNC3CCC1 (stereo unspecified) | inactive
CCNC(=O)/C=C/c1cccc(Br)c1 | inactive
CCN(CCO)c1cccc(C)c1 | inactive
CCCCCCCCCCCCOC(C)=O | inactive
CCCCCCCCCCCCC1CO1 (stereo unspecified) | inactive
CC(=O)OCC(=O)[C@@]1(O)[C@H](OC(C)=O)C[C@H]2[C@@H]3CCC4=CC(=O)C=C[C@]4(C)[C@@]3(F)[C@@H](O)C[C@@]21C | inactive

###

experimental details: qHTS assay to test for compound auto fluorescence at 460 nm (blue) in HEK293 cells (AID 720678); note: % is set by controls: 0 for no effect and ±100 for the full control effect
condition info: blue autofluorescence 405/460 nm; series mostly up to 91.3 µM
The source made the active and inactive calls. Calls come from the whole dose curve; as a rule, active = well fitted curve in the direction sought with a large enough effect in the repeat runs; inconclusive = weak or mixed curves; inactive = flat fitted curve, though single readings scatter.
readout kind: fluorescence, % of triamterene

molecule | test result
CC(=O)N(CC(O)CO)c1c(I)c(C(=O)NCC(O)CO)c(I)c(C(=O)NCC(O)CO)c1I (stereo not drawn) | inactive
CCCOC(=O)CCCCC(=O)OCCC | inactive
Cc1cc(C)cc([N+](=O)[O-])c1 | inactive
C[C@H](CCC(=O)O)[C@H]1CC[C@H]2[C@@H]3[C@H](O)C[C@@H]4C[C@H](O)CC[C@]4(C)[C@H]3C[C@H](O)[C@]12C | inactive
OC(CCN1CCCCC1)(c1ccccc1)c1ccccc1 | inactive
C=COCCOCCOC=C | inactive
CC(C)c1ccccc1O | inactive
CC(C)(C)NCCO | inactive
FC(F)(F)c1ccc(Cl)cc1Cl | inactive
CCS(=O)(=O)CCn1c([N+](=O)[O-])cnc1C | -0.271% [at 18.6 µM] (inactive)
CCCCCCCCCCC | inactive
Nc1c(NC/C=C\COc2cc(CN3CCCCC3)ccn2)c(=O)c1=O | inactive
C[N+](C)(C)CC(O)CCl (stereo not drawn) | inactive

###

assayed system: Progesterone receptor (Homo sapiens) (UniProt P06401)
Sequence (P06401 whole entry, looked up): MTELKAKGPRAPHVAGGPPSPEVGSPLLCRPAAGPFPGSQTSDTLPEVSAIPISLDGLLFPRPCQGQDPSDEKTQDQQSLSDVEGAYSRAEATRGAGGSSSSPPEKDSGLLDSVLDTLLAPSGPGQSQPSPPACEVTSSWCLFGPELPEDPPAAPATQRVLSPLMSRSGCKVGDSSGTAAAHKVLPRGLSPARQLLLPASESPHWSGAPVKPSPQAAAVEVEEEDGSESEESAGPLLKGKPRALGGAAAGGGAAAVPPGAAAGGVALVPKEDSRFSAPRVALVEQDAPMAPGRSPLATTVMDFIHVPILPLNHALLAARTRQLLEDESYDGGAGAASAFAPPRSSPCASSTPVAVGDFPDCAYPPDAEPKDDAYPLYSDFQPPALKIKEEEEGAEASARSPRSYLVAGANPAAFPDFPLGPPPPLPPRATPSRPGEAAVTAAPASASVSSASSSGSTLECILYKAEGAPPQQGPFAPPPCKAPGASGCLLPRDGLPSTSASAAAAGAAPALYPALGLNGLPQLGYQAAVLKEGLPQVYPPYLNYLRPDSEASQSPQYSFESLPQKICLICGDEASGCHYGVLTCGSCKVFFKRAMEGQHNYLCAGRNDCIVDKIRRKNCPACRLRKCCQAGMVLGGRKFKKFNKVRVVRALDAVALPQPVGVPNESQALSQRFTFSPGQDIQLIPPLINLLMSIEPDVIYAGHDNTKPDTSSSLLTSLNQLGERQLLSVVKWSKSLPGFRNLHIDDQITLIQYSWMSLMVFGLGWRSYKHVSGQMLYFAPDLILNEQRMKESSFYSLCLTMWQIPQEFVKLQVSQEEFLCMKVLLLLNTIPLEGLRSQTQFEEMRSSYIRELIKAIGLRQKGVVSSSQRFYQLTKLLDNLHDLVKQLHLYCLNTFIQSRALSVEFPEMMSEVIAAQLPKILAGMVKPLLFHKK
experimental details: qHTS assay to identify small molecule agonists of the progesterone receptor (PR) signaling pathway (AID 1346784); note: nearly all actives have a fitted effect of over 30% in size
condition info: PR-UAS-bla HEK293T, beta-lactamase FRET ratio, 16 h; series mostly up to 92.4 µM
Inconclusive results are not listed. The source made the active and inactive calls. The call rests on the fitted dose curve.
Outcome codes: class 1 (active), class 0 (inactive)

molecule | class
C[C@@H]1C[C@H]2[C@@H]3C[C@H](F)C4=CC(=O)C=C[C@]4(C)[C@@]3(F)[C@@H](O)C[C@]2(C)[C@@]1(O)C(=O)CO | class 1
CCC(C)N (stereo not given) | class 0
CCC(C)(CCC(C)C)C(=O)[O-].CCC(C)(CCC(C)C)C(=O)[O-].[Zn+2] (stereo not given) | class 0
CCN1CN(CC)CN(CC)C1 | class 0
CCOC(=O)CC#N | class 0
CCC(C)(C)C1CCC(=O)CC1 | class 0
C[C@H](CCC(=O)NCC(=O)O)[C@H]1CC[C@H]2[C@@H]3[C@H](O)C[C@@H]4C[C@H](O)CC[C@]4(C)[C@H]3C[C@H](O)[C@]12C | class 0
CCCCC(CC)C(=O)OC(C)C (stereo not given) | class 0
Nc1cc(C(=O)O)ccc1Cl | class 0
C1=CCC(c2ccccc2)CC1 (stereo not given) | class 0
C[CH2][Ge]([Cl])([CH2]C)[CH2]C | class 0
CCCCOC(=O)[C@@H](C)Oc1ccc(Oc2ccc(C(F)(F)F)cn2)cc1 | class 0
Nc1ccnc(=O)[nH]1 | class 0
CCN(CCO)c1cccc(C)c1 | class 0
C=C[C@@H](C)CCC=C(C)C | class 0
CCCOC(=O)CCCCC(=O)OCCC | class 0
CCN(CCC#N)c1ccccc1 | class 0
CCc1nccnc1C | class 0
C[N+](C)(C)CC(O)CCl (stereo not given) | class 0
CN=C(NC#N)NCCSCc1csc(N=C(N)N)n1 | class 0
